Where these numbers come from: PubChem BioAssay (EPA / NIEHS)

- Read-out: Glutamate-cysteine ligase catalytic (GCLC), GCLC (gene 2729)
- experiment: LTEA_HepaRG_GCLC: Life Technologies and Expression Analysis (LTEA) Assay for Glutamate-cysteine ligase catalytic (GCLC) using HepaRG (AID 2283498)
- measurement parameters: mRNA level, 48 h; actives raise or lower the signal
Activity calls are given as the source filed them. How the source made its calls: active means hit-call score of the fitted dose curve at least 0.9, where 1 is the maximum; inactive means score below 0.9.
recorded endpoint: AC50

// solved cases for AC50 follow
## Input Consider the compound COC(=O)N(C(=O)N1CO[C@@]2(C(=O)OC)Cc3cc(Cl)ccc3C2=N1)c1ccc(OC(F)(F)F)cc1 and give its measured AC50.
## Output inactive

## Input Consider the compound CN=C=S and give its measured AC50.
## Output inactive

## Input Consider the compound CC(C)N1C(=O)N(c2ccccc2)CSC1=NC(C)(C)C and give its measured AC50.
## Output 81.8 µM (active)

## Input Consider the compound COCC(C)N(C(=O)CCl)c1c(C)csc1C (centres undefined) and give its measured AC50.
## Output 50 µM (active)

## Input Consider the compound CCNC(=O)NC(=O)C(C#N)=NOC and give its measured AC50.
## Output 9.92 µM (active)

---
## Input Consider the compound CC1(C)C(C=C(Cl)Cl)C1C(=O)OC(C#N)c1cccc(Oc2ccccc2)c1 (centres undefined) and give its measured AC50.
## Output inactive

## Input Consider the compound CC(C)C1(C)N=C(c2ncccc2C(=O)O)NC1=O (centres undefined) and give its measured AC50.
## Output inactive

## Input Consider the compound CC(C)NC(=O)N1CC(=O)N(c2cc(Cl)cc(Cl)c2)C1=O and give its measured AC50.
## Output inactive
